src = patent US20090130692A1

# ASSAY_TARGET: T1, porcine trypsin (Porcine), P00761
# T1 chain: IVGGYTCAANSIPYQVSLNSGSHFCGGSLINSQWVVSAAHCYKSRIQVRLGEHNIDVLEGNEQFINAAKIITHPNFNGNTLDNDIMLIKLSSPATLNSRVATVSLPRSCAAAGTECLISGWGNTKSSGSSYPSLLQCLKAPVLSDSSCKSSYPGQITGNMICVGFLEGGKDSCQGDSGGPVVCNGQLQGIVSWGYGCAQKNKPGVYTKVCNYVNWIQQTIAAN
# TEST_SUMMARY: enzyme inhibition, selectivity panel; apparent Ki (Kiapp)
ASSAY_READOUT: pKi
Worth noting: pKi values are minus log10 of concentrations stated in mol/L.

Here is how some binders turned out for pKi.
[
  {
    "BINDER": "GVCPRILKKCRRDSDCPGACICRGNGYCG (modifications not checked) [MCoTI-R]",
    "pKi": 9.10
  },
  {
    "BINDER": "KKVGVCPKILKKCRRDSDCPGACICRGNGYCG (modifications not checked) [MCoTI-KKV]",
    "pKi": 9.40
  }
]

// below: pKi requested for another binder
Please look up its pKi: GVCPKILKKCRRDSDCLAGCVCGPNGFCGS (modifications not checked) [SE-MG-0]
9.52
